Assay target: Fuc(a1-2)[Gal(a1-3)]Gal(b1-4)GlcNAc(b1-2)Man(a1-3)[Fuc(a1-2)[Gal(a1-3)]Gal(b1-4)GlcNAc(b1-2)Man(a1-6)]Man(b1-4)GlcNAc(b1-4)GlcNAc
Test summary: glycan array binding signal (z-score within array); higher = stronger binding
Experimental conditions: glycan notation: IUPAC condensed, linker removed
This is one part of a sample in which the strongest signals are shown more often than they occur.
Use 2 as the dividing line for glycan array binding signal (z-score), with the line itself on the met side and lower values as not met.

INPUT: Decide: is the reported value of glycan array binding signal (z-score) for PLU (Photorhabdus luminiscence) (protein) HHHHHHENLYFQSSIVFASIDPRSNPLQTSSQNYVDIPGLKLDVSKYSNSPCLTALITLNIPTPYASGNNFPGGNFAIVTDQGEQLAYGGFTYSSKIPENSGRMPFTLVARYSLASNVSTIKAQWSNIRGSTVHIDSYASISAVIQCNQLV equal to or greater than 2?
OUTPUT: met

INPUT: Decide: is the reported value of glycan array binding signal (z-score) for AFL6 (Aspergillus fumigatus), Q4WKJ1 (protein) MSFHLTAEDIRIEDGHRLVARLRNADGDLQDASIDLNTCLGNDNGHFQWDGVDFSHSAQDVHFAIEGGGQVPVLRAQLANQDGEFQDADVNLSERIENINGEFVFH equal to or greater than 2?
OUTPUT: not met

INPUT: Decide: is the reported value of glycan array binding signal (z-score) for PNGase F (Flavobacterium meningosepticum) (protein) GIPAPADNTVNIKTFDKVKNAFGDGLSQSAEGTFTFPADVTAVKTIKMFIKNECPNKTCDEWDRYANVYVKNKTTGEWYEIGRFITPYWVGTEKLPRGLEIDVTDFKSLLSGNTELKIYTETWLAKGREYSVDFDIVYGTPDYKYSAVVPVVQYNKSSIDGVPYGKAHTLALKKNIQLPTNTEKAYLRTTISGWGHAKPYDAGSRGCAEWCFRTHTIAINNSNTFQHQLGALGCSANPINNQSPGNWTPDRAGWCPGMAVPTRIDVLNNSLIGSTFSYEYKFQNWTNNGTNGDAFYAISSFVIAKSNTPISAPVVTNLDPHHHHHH equal to or greater than 2?
OUTPUT: not met

INPUT: Decide: is the reported value of glycan array binding signal (z-score) for GH98CBM51-1 (Streptococcus pneumoniae) (protein) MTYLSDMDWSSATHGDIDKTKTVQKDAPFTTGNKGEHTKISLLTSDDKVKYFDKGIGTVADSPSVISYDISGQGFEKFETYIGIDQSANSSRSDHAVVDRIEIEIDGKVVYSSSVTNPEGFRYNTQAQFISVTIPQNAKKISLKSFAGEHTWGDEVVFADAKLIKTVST equal to or greater than 2?
OUTPUT: met

INPUT: Decide: is the reported value of glycan array binding signal (z-score) for Vd2LysM (Verticillium dahliae) (protein) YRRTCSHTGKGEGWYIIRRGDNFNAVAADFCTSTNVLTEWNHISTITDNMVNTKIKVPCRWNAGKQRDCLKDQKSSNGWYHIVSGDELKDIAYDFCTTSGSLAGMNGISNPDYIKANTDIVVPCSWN equal to or greater than 2?
OUTPUT: not met

src = the supplement of paper PMC8728848
